- test-parameters: rat, in vivo, sc, 50 mg/kg
e = 2'-O-(2-methoxyethyl) (MOE); d = 2'-deoxy (DNA)
assay-metric: Neutrophil (%)

1) ISIS 445509: 5-8-5 or 6-8-6 MOE microwalk gapmer (Table 44) (antisense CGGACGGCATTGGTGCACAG; sugars from the 5' end e6 d8 e6, backbone and methylation of C not given here) :: 11
2) ISIS 445530: 5-8-5 or 6-8-6 MOE microwalk gapmer (Table 44) (antisense GCATTGGTGCACAGTTTC; sugars from the 5' end e5 d8 e5, backbone and methylation of C not given here) :: 11
3) ISIS 445505: 5-8-5 or 6-8-6 MOE microwalk gapmer (Table 44) (antisense CGGCATTGGTGCACAGTTTC; sugars from the 5' end e6 d8 e6, backbone and methylation of C not given here) :: 10
4) ISIS 445498: 5-8-5 or 6-8-6 MOE microwalk gapmer (Table 44) (antisense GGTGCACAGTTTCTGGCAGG; sugars from the 5' end e6 d8 e6, backbone and methylation of C not given here) :: 9

###

- Tested on: human Factor 11 mRNA
- experiment-description: Dose-dependent inhibition of human Factor 11 in HepG2 cells, electroporation 123.46-10,000 nM (Example 31)
- Type: cell-based
- test-parameters: electroporation, Factor 11 mRNA expression
Strand notation (5' to 3'): a small letter for the sugar, then the base; units joined by * are phosphorothioate-linked, units joined directly phosphodiester-linked; [ ] holds rarer units or linkages, { } end groups; capitals alone tell only the bases. e = 2'-O-(2-methoxyethyl) (MOE); [5mC] = 5-methylcytosine; d = 2'-deoxy (DNA)
Consider the cut-off 2000 nM. If the recorded IC50 is strictly smaller, the label is criterion met; if not, the label is criterion not met.

1) 416851 (antisense GTGCACAGTTTCTGGCAGGC; 5-10-5 gapmer, further chemistry not given here) [compound 416851] :: criterion met
2) 445504 (antisense eG*eG*e[5mC]*eA*eT*eT*dG*dG*dT*dG*d[5mC]*dA*d[5mC]*dA*eG*eT*eT*eT*e[5mC]*eT) [compound 445504] :: criterion not met
3) 416856 (antisense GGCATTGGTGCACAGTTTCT; 5-10-5 gapmer, further chemistry not given here) [compound 416856] :: criterion met
4) 445505 (antisense e[5mC]*eG*eG*e[5mC]*eA*eT*dT*dG*dG*dT*dG*d[5mC]*dA*d[5mC]*eA*eG*eT*eT*eT*e[5mC]) [compound 445505] :: criterion met
5) 445498 (antisense eG*eG*eT*eG*e[5mC]*eA*d[5mC]*dA*dG*dT*dT*dT*d[5mC]*dT*eG*eG*e[5mC]*eA*eG*eG) [compound 445498] :: criterion not met
6) 416858 (antisense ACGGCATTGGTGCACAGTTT; 5-10-5 gapmer, further chemistry not given here) [compound 416858] :: criterion not met

###

- test-parameters: mouse, in vivo, sc, 50 mg/kg
e = 2'-O-(2-methoxyethyl) (MOE); d = 2'-deoxy (DNA)
Reported Neutrophil by item:
assay-metric: Neutrophil (cells/μL)

1. ISIS 416861: MOE gapmer, nucleobases 1275 to 1318 of SEQ ID NO: 1 (Table 8) (antisense GCGGACGGCATTGGTGCACA; MOE gapmer, wing and gap sizes not given here) :: 1122
2. ISIS 412223: 5-10-5 MOE gapmer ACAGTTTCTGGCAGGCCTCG (sugars from the 5' end e5 d10 e5, backbone and methylation of C not given here) :: 1756
3. ISIS 416859: MOE gapmer, nucleobases 1275 to 1318 of SEQ ID NO: 1 (Table 8) (antisense GACGGCATTGGTGCACAGTT; MOE gapmer, wing and gap sizes not given here) :: 1561

###

Reported Inhibition of Factor 11 protein relative to the PBS control (percentage reduction) by item:
- Tested on: Factor 11 protein
- experiment-description: Factor 11 protein in monkey plasma by sandwich ELISA (Example 46)
- Type: in vivo, cynomolgus monkeys
- test-parameters: Day 55, plasma, 25 mg/kg subcutaneously
Strand notation (5' to 3'): a small letter for the sugar, then the base; units joined by * are phosphorothioate-linked, units joined directly phosphodiester-linked; [ ] holds rarer units or linkages, { } end groups; capitals alone tell only the bases. e = 2'-O-(2-methoxyethyl) (MOE); [5mC] = 5-methylcytosine; d = 2'-deoxy (DNA)
assay-metric: Inhibition of Factor 11 protein relative to the PBS control (percentage reduction) (%)

1) 449707 (antisense e[5mC]*eA*e[5mC]*eA*dG*dT*dT*dT*d[5mC]*dT*dG*dG*e[5mC]*eA*eG*eG) [compound 449707] :: 32
2) 445531 (antisense eG*eG*e[5mC]*eA*eT*dT*dG*dG*dT*dG*d[5mC]*dA*d[5mC]*eA*eG*eT*eT*eT) [compound 445531] :: 37
3) 449710 (antisense e[5mC]*eA*e[5mC]*dA*dG*dT*dT*dT*d[5mC]*dT*dG*dG*d[5mC]*eA*eG*eG) [compound 449710] :: 24

###

Reported pIC50 by item:
- System: human Factor 11 mRNA
- experiment-description: Dose-dependent inhibition of human Factor 11 in HepG2 cells, electroporation 0.7-20 uM (Example 4)
- Type: cell-based
pIC50: −log10 of the molar value. Strand notation (5' to 3'): a small letter for the sugar, then the base; units joined by * are phosphorothioate-linked, units joined directly phosphodiester-linked; [ ] holds rarer units or linkages, { } end groups; capitals alone tell only the bases. e = 2'-O-(2-methoxyethyl) (MOE); [5mC] = 5-methylcytosine; d = 2'-deoxy (DNA)
assay-metric: pIC50

1) 417000 (antisense eT*eG*d[5mC]*dA*d[5mC]*dA*dG*dT*dT*dT*d[5mC]*dT*dG*dG*d[5mC]*eA*eG*eG*e[5mC]*e[5mC]) [compound 417000] :: 6.22
2) 416892 (antisense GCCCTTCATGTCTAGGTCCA; 3-14-3 chimeric gapmer, further chemistry not given here) [compound 416892] :: 5.60
3) 416945 (antisense eA*eA*dT*dG*dT*d[5mC]*dT*dT*dT*dG*dT*dT*dG*d[5mC]*dA*eA*eG*e[5mC]*eG*e[5mC]) [compound 416945] :: 6.22
4) 416878 (antisense eG*eG*eT*d[5mC]*d[5mC]*dA*d[5mC]*dA*dT*dA*dA*dA*dT*dG*dT*d[5mC]*dT*eT*eT*eG) [compound 416878] :: 5.37
5) 416969 (antisense eG*e[5mC]*d[5mC]*d[5mC]*dT*dT*d[5mC]*dA*dT*dG*dT*d[5mC]*dT*dA*dG*eG*eT*e[5mC]*e[5mC]*eA) [compound 416969] :: 5.60
6) 416842 (antisense eT*eG*eA*eG*eA*dT*dT*d[5mC]*dT*dT*dT*dG*dG*dG*d[5mC]*e[5mC]*eA*eT*eT*e[5mC]) [compound 416842] :: 5.30
7) 416989 (antisense eG*eA*dG*dA*dT*dT*d[5mC]*dT*dT*dT*dG*dG*dG*d[5mC]*d[5mC]*eA*eT*eT*e[5mC]*e[5mC]) [compound 416989] :: 5.89
8) 416985 (antisense eG*e[5mC]*dA*dA*d[5mC]*d[5mC]*dG*dG*dG*dA*dT*dG*dA*dT*dG*eA*eG*eT*eG*e[5mC]) [compound 416985] :: 5.24
9) 416924 (antisense eG*eT*eG*d[5mC]*dA*d[5mC]*dA*dG*dT*dT*dT*d[5mC]*dT*dG*dG*d[5mC]*dA*eG*eG*e[5mC]) [compound 416924] :: 5.39
10) 413474 (antisense eA*eG*e[5mC]*eA*eA*d[5mC]*d[5mC]*dG*dG*dG*dA*dT*dG*dA*dT*eG*eA*eG*eT*eG) [compound 413474] :: 5.16
11) 416838 (antisense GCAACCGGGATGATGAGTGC; 5-10-5 gapmer, further chemistry not given here) [compound 416838] :: 5.29
12) 416993 (antisense e[5mC]*eT*dT*dT*dG*dA*dG*dA*dT*dT*d[5mC]*dT*dT*dT*dG*eG*eG*e[5mC]*e[5mC]*eA) [compound 416993] :: 5.66
13) 416850 (antisense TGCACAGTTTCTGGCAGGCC; 5-10-5 gapmer, further chemistry not given here) [compound 416850] :: 5.47
14) 416858 (antisense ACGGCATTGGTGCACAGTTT; 5-10-5 gapmer, further chemistry not given here) [compound 416858] :: 5.28
15) 416864 (antisense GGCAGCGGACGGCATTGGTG; 5-10-5 gapmer, further chemistry not given here) [compound 416864] :: 5.85
16) 416923 (antisense eT*eG*e[5mC]*dA*d[5mC]*dA*dG*dT*dT*dT*d[5mC]*dT*dG*dG*d[5mC]*dA*dG*eG*e[5mC]*e[5mC]) [compound 416923] :: 5.40

Sourced from patent US20230263822A1
